Kindly supply the reported yeast surface expression values for the records listed here.
B1: scFv; the commonest letter at each place (parent)
chain 1: EVKLDETGGGLVQPGRPMKLSCVASGFTFSDYWMNWVRQSPEKGLEWVAQIRNKPYNYETYYSDSVKGRFTISRDDSKSSVYLQMNNLRVEDMGIYYCTGSYYGMDYWGQGTSVTVS
chain 2: DVVMTQTPLSLPVSLGDQASISCRSSQSLVHSNGNTYLRWYLQKPGQSPKVLIYKVSNRFSGVPDRFSGSGSGTDFTLKISRVEAEDLGVYFCSQSTHVPWTFGGGTKLEIK

# Variants of: B1
# method summary: yeast surface expression (ratio to wild type); higher = more expressed
# measurement conditions: format: scFv 4-4-20, heavy + light

// solved cases for yeast surface expression follow
- mutant code: "chain 1 D31C V37K"
  yeast surface expression: 0.453
- mutant code: "chain 1 G100P M105A"
  yeast surface expression: 0.56
- mutant code: "chain 1 G104L Y107C"
  yeast surface expression: 0.133
- mutant code: "chain 1 W33E V37C"
  yeast surface expression: 0.709
- mutant code: "chain 1 F29I V37D"
  yeast surface expression: 1.12

Please state yeast surface expression for every variant in the list that follows.
1. chain 1 M105L G109C
2. chain 1 D31S M34G
3. chain 1 T28L V37Q
4. chain 1 Y32P V37G
5. chain 1 T28W S30F
6. chain 1 M34L
7. chain 1 D31A
8. chain 1 G100R G104S

[0.26, 0.543, 0.731, 2.54, 0.69, 0.971, 0.772, 0.28]
